molecular target: Orphan methyltransferase M.SssI (Spiroplasma monobiae (strain ATCC 33825 / MQ-1)); experiment: DNA Methylation Assay; conditions: pH 7.5
Sequence (P15840 whole entry): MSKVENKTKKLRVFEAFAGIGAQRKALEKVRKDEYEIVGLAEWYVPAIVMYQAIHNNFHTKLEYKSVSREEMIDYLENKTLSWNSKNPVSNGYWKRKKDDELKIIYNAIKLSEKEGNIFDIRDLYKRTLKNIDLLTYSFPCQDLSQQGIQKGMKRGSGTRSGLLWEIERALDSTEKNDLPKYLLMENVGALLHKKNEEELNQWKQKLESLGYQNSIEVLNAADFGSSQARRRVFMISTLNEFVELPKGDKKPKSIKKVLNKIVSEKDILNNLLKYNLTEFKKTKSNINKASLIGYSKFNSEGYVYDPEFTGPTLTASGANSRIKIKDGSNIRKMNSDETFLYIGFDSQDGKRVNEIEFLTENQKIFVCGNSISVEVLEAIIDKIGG
Experimental Readout: IC50 (µM)
Quick note: give the figure in µM, leave out the unit.

Request: # lookup: Orphan methyltransferase M.SssI (Spiroplasma monobiae (strain ATCC 33825 / MQ-1)) IC50, key = `CC(=O)NCCc1ccc(O)c(-c2c(O)c(O)c3c(c2O)C(=O)c2c(cc(O)c(C(=O)O)c2C(=O)O)C3=O)c1`
Response: 53.6
